Hello, the source for this data is ChEMBL document CHEMBL1961873, in case you need it.

testSystem: 5'-AMP-activated protein kinase catalytic subunit alpha-2 (Homo sapiens) (UniProt P54646)
Sequence (P54646 whole entry, looked up): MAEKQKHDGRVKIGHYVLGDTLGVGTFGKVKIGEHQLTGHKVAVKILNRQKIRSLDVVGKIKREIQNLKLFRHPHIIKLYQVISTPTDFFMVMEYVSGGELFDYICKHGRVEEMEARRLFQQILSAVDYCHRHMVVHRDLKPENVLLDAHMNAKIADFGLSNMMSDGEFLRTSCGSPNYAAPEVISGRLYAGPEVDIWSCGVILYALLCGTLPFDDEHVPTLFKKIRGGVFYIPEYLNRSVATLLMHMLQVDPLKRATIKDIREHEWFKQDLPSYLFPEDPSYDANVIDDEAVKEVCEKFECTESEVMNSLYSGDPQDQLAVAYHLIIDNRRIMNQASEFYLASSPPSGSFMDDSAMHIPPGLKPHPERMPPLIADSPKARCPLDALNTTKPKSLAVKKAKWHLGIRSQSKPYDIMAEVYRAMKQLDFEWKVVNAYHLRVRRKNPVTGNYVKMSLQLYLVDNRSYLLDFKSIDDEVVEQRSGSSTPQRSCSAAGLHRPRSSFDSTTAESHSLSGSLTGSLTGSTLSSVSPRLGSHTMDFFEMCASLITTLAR
measurementContext: at 1 µM
Description: GSK_PKIS: AMPKA2 (A2B1G1) mean inhibition at 1 uM [Nanosyn]
Record form. Attribute: inhibition. Fill in for each entry.
The reply should be a number in %, with the unit left off.

Answer with the recorded inhibition for the compound listed here: `CC(=O)Nc1cccc(C#Cc2cncnc2Nc2ccc(OCc3cccc(F)c3)c(Cl)c2)c1`
2.19

Consider the compound `Fc1cccc(COc2ccc(Nc3ncnc4sc(-c5ccco5)cc34)cc2Cl)c1` and give its recorded inhibition.
5.24

Could you please provide reported inhibition for `CCn1cc(-c2ccnc3[nH]ccc23)c(-c2cccc(NC(=O)Nc3ccc(OCc4ccccc4)cc3)c2)n1` ? Thanks!
2.24

Provide only the value of recorded inhibition for `Cc1ccc2c(-c3ccnc(Nc4ccccc4)n3)c(-c3ccc(F)cc3)nn2n1`
3.36

Consider the compound `COC(=O)c1sc(-n2cnc3cc(OC)c(OC)cc32)cc1OCc1ccccc1C(F)(F)F` and give its recorded inhibition.
5.51

Give a short answer stating reported inhibition for `[O-][S+]1CCN(Cc2ccc(-c3ccc4ncnc(Nc5ccc(OCc6cccc(F)c6)c(Cl)c5)c4c3)o2)CC1` .
5.75

Consider the compound `CC(C)COC(=O)c1ccc2c(c1)/C(=C/Nc1ccc(S(N)(=O)=O)cc1)C(=O)N2` . State its measured inhibition.
36.3

Answer with the recorded inhibition of `COc1ccc(-c2nn3ncccc3c2-c2ccnc(Nc3ccc4c(c3)OCCO4)n2)cc1` only.
0.38

Query inhibition for `COc1cc2ncn(-c3cc(OCc4ccccc4C(F)(F)F)c(C(=O)N(C)C)s3)c2cc1OC`
1.18
